Measured values drawn from patent US12486251B2 for this set.

Entries and their IC50
Molecular target: CBP recombinant proteins (Homo sapiens (Human), UniProt Q92793)
Sequence (Q92793 whole entry): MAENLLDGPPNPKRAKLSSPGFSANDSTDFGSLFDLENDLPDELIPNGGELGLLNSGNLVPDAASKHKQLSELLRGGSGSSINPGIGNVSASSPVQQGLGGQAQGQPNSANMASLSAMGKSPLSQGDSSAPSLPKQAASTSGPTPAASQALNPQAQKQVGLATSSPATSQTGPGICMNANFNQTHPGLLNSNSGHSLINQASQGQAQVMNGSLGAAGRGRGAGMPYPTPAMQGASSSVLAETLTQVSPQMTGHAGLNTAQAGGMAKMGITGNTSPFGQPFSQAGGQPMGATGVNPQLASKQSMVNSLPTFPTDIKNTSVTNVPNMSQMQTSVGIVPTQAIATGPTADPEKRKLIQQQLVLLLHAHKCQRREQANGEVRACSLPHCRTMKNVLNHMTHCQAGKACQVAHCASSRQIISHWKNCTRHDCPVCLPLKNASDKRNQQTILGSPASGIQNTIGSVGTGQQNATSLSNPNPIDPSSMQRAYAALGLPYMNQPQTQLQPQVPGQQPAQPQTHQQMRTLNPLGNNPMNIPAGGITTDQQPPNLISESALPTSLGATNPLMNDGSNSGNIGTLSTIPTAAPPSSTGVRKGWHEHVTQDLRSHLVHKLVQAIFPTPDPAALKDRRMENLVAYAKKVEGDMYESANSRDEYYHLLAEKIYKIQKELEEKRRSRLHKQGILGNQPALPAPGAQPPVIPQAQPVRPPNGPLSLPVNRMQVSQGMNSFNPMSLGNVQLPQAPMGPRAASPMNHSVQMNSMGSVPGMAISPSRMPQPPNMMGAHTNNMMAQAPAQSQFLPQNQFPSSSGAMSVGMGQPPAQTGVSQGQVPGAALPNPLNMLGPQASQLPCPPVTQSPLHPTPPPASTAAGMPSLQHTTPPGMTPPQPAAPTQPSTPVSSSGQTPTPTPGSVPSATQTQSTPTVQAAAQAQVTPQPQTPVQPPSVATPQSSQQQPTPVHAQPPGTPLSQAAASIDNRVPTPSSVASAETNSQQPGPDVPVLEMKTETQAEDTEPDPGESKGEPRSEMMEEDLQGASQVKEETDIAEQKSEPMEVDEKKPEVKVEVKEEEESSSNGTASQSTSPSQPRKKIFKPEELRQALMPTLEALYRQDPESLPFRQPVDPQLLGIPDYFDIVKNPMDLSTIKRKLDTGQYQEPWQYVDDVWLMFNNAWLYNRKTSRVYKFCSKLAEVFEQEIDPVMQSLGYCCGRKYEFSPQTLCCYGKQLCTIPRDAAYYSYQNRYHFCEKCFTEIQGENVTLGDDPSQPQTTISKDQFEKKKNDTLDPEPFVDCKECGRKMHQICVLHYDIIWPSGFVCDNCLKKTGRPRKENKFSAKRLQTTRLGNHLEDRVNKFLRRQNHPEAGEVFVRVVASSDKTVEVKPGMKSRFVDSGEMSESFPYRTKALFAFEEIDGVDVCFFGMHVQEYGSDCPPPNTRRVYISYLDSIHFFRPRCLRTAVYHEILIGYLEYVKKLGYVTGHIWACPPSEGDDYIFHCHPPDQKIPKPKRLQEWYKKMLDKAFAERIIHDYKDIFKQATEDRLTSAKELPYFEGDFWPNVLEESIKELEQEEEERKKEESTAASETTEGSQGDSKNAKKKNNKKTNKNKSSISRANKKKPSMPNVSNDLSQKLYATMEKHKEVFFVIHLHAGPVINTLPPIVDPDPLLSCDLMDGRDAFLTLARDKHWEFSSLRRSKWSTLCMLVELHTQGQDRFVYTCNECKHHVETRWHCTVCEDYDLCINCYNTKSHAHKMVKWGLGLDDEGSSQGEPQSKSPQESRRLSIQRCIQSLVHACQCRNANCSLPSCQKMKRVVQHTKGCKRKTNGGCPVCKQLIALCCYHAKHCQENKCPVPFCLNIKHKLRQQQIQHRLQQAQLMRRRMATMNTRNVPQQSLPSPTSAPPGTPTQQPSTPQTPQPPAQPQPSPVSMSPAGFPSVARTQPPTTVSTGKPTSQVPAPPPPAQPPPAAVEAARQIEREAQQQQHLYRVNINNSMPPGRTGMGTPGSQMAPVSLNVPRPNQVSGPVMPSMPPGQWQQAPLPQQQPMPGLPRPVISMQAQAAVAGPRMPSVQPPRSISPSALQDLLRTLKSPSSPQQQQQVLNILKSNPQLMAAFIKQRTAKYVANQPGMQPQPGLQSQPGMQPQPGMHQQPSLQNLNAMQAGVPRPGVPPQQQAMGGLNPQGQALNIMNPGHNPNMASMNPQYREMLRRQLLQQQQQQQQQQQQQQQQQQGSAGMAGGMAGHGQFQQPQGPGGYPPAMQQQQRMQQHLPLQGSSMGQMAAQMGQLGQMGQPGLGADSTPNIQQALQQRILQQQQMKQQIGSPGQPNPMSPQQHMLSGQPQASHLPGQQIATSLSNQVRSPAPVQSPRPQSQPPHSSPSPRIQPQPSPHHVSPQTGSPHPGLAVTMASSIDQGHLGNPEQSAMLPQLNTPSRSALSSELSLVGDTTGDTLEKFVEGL
Assay: Competitive HTRF assay for affinity to CBP recombinant protein
Conditions: His-tagged CBP 5 nM, biotin-labeled ligand 50 nM, 1% DMSO

{"Compound structure": "CNC(=O)c1cc2cc(N3CCCS3(=O)=O)ccc2c(N2CCCc3cc(-c4cnn(C)c4)c(C(F)F)cc32)n1", "Target system": "CBP recombinant proteins (Homo sapiens (Human), UniProt Q92793)", "IC50": "11 nM"}
{"Compound structure": "CNC(=O)c1cc2cc(F)cnc2c(N2CCCc3cc(C4CCN(C(C)=O)CC4)c(C(F)F)cc32)n1", "Target system": "CBP recombinant proteins (Homo sapiens (Human), UniProt Q92793)", "IC50": "27 nM"}
{"Compound structure": "CNC(=O)c1cc2cccnc2c(N2CCCc3cc(-c4cncnc4)c(C(F)F)cc32)n1", "Target system": "CBP recombinant proteins (Homo sapiens (Human), UniProt Q92793)", "IC50": "16 nM"}
{"Compound structure": "CCNC(=O)c1cc2ccccc2c(N2CCCc3cc(-c4cnn(C)c4)c(C(F)F)cc32)n1", "Target system": "CBP recombinant proteins (Homo sapiens (Human), UniProt Q92793)", "IC50": "> 1000 nM"}
{"Compound structure": "CNC(=O)c1cc2ccccc2c(N2CCCc3cc(-c4cncnc4)c(C(F)F)cc32)n1", "Target system": "CBP recombinant proteins (Homo sapiens (Human), UniProt Q92793)", "IC50": "22 nM"}
{"Compound structure": "CNC(=O)c1cc2cc(N3CCOCC3=O)ccc2c(N2CCCc3cc(-c4cnn(C)c4)c(C(F)F)cc32)n1", "Target system": "CBP recombinant proteins (Homo sapiens (Human), UniProt Q92793)", "IC50": "5.3 nM"}
{"Compound structure": "CNC(=O)c1cc2cccnc2c(N2CCCc3cc(C4=CCN(C)CC4)c(C(F)F)cc32)n1", "Target system": "CBP recombinant proteins (Homo sapiens (Human), UniProt Q92793)", "IC50": "64 nM"}
{"Compound structure": "CNC(=O)c1cc2cccnc2c(N2CCCc3cc(-c4cnn(CC#N)c4)c(C(F)F)cc32)n1", "Target system": "CBP recombinant proteins (Homo sapiens (Human), UniProt Q92793)", "IC50": "15 nM"}
{"Compound structure": "CNC(=O)c1cc2ccccc2c(N2CCCc3cc(CO)ccc32)n1", "Target system": "CBP recombinant proteins (Homo sapiens (Human), UniProt Q92793)", "IC50": "402 nM"}
{"Compound structure": "CNC(=O)c1cc2cccnc2c(N2CCCc3cc(-c4ccnnc4)c(C(F)F)cc32)n1", "Target system": "CBP recombinant proteins (Homo sapiens (Human), UniProt Q92793)", "IC50": "13 nM"}
